system.tested: Transient receptor potential cation channel subfamily V member 1 (Homo sapiens)
Sequence (Q8NER1 whole entry): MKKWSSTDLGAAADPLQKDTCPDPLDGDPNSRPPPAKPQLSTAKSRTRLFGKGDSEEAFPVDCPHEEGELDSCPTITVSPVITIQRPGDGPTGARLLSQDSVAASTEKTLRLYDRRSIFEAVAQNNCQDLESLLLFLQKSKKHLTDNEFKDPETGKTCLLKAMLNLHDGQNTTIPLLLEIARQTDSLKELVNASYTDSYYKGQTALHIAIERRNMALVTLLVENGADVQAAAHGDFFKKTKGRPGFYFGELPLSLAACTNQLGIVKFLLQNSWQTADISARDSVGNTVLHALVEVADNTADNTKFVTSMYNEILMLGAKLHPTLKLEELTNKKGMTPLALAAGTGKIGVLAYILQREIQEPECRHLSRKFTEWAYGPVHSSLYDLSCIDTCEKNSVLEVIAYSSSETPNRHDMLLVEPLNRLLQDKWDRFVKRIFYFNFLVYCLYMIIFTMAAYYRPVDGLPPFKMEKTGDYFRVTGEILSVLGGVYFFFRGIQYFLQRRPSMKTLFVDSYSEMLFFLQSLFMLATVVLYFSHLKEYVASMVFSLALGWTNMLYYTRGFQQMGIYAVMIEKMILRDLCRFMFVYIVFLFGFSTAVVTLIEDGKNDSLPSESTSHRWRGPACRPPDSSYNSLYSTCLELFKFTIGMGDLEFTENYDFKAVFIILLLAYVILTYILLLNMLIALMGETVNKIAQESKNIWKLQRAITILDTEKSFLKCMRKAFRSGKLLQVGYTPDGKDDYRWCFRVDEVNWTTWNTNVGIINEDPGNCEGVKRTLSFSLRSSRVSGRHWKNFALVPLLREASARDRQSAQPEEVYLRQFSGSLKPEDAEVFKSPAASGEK
assay.info: Antagonist activity at human TRPV1 heterologously expressed in CHO cells assessed as inhibition of capsaicin-induced activation by FLIPR assay
metric: Ki (pM)
All answers are understood in pM, so give the number only.

Exercise: Which Ki is reported for this compound? CCCCCOc1cc(C(F)(F)F)ccc1CNC(=O)C(C)c1ccc(NS(C)(=O)=O)c(F)c1 (stereo unspecified)
Key: 700
